B1: SMOC2 (parent)
chain: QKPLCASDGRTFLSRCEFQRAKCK

- Variants of: B1
- run description: protein stability index of a GFP-peptide fusion (GPS, HEK-293T) (PSI 1-6); higher = more stable;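 note: lentivirally expressed fusions sorted by FACS into six bins by GFP to DsRed ratio, PSI derived from sequencing read proportions per bin multiplied by bin number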
- assay setup: c terminus: a fixed tail appended
Classify as follows. Reported protein stability index greater than or equal to 3: satisfied. Reported protein stability index below: not satisfied.

Past entries and their recorded results:
variant descriptor | assigned label
R15S | satisfied
S7Q | not satisfied

input: Kindly determine if protein stability index recorded for `A21E` is above or exactly 3.
output: satisfied

input: Moving on to `A21K`
output: satisfied

input: Same thing, different variant: `G9Q`
output: not satisfied

The measurements presented in this section are drawn from the supplement of paper PMC10567573.
